# assayed-system: Corticotropin-releasing factor receptor 2 (Mus musculus)
# protocol: Antagonistic activity against [125I]-Tyr-ovine CRF binding to Corticotropin releasing factor receptor 2 beta (30% inhibition at 100 uM)
pKi: −log10 of the molar value.
endpoint-name: pKi

State, in one line, measured pKi of `O=C(O)c1ccc2c3c(ncnc13)-c1ccccc1C2=O`
< 4.00

###

# assayed-system: 5-hydroxytryptamine receptor 6 (Homo sapiens)
# Sequence (P50406 whole entry): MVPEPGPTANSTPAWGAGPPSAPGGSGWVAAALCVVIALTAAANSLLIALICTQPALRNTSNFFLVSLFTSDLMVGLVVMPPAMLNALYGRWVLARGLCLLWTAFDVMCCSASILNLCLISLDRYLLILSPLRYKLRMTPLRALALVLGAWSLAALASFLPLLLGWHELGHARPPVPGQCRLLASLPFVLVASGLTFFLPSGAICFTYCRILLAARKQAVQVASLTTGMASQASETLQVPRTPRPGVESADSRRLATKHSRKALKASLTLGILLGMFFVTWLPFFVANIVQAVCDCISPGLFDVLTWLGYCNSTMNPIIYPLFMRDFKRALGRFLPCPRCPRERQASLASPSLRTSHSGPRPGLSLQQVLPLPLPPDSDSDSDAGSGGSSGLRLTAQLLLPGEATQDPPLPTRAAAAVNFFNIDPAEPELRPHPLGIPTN
pKi: −log10 of the molar value.
endpoint-name: pKi

State, in one line, measured pKi of `N[C@H]1CCCC[C@@H]1NC(=O)c1c2c(c3c4c(ncnc14)-c1ccccc1C3=O)N[C@@H]1CCCC[C@H]1N2`
< 5.00

###

Here we list compounds with their recorded pKi when tested on Corticotropin-releasing factor receptor 1 (Rattus norvegicus, UniProt P35353).
Sequence (P35353 whole entry): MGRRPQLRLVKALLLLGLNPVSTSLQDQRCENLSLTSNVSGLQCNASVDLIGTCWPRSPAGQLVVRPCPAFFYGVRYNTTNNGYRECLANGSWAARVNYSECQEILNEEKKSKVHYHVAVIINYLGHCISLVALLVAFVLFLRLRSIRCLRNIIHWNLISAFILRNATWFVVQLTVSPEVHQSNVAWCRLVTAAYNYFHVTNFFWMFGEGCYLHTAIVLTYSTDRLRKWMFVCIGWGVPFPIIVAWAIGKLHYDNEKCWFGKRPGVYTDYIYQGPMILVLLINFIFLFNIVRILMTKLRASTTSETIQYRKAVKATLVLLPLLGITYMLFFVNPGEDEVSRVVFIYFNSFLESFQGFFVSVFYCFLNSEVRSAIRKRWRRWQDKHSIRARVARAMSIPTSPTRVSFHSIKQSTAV
Keep in mind that pKi stands for -log10 of concentration in molar terms.

{"structure": "N[C@@H]1CCCC[C@H]1NC(=O)c1c2c(c3c(O)c4ccccc4c4ncnc1c34)=N[C@H]1CCCC[C@@H]1N2", "pKi": 6.74}
{"structure": "N[C@H]1CCCC[C@@H]1NC(=O)c1c2c(c3c4c(ncnc14)-c1ccccc1C3=O)N[C@@H]1CCCC[C@H]1N2", "pKi": 6.96}
{"structure": "NCCNC(=O)c1c2c(c3c(O)c4ccccc4c4ncnc1c34)=NCCN2", "pKi": 5.69}
{"structure": "NCCNC(=O)c1c2c(c3c(O)c4ccccc4c4ncnc1c34)=N[C@H]1CCCC[C@H]1N2", "pKi": 6.57}

Here is the next item to consider.
State, in one line, measured pKi of `NCCNC(=O)c1c2c(c3c(O)c4ccccc4c4ncnc1c34)=N[C@@H]1CCCC[C@H]1N2`
6.80

###

Some molecules, each annotated with its measured pKi.
# assayed-system: Corticotropin-releasing factor receptor 2 (Mus musculus, UniProt Q60748)
# Sequence (Q60748 whole entry): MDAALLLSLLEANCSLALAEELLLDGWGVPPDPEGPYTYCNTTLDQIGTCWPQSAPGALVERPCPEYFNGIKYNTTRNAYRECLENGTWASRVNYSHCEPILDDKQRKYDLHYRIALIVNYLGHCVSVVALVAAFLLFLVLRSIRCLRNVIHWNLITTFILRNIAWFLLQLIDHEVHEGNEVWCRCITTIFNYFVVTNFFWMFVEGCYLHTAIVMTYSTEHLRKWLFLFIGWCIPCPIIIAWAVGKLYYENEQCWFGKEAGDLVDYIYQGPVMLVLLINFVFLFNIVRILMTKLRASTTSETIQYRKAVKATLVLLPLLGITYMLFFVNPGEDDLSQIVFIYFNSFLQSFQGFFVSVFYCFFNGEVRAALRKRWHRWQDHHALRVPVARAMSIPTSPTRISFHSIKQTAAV
# protocol: Antagonistic activity against [125I]-Tyr-ovine CRF binding to Corticotropin releasing factor receptor 2 beta
Keep in mind that pKi stands for -log10 of concentration in molar terms.

{"structure": "N[C@@H]1CCCC[C@H]1NC(=O)c1c2c(c3c(O)c4ccccc4c4ncnc1c34)=N[C@H]1CCCC[C@@H]1N2", "pKi": 7.07}

State, in one line, measured pKi of `NCCNC(=O)c1c2c(c3c4c(ncnc14)-c1ccccc1C3=O)N[C@H]1CCCC[C@@H]1N2`
7.12

State, in one line, measured pKi of `N[C@H]1CCCC[C@@H]1NC(=O)c1c2c(c3c4c(ncnc14)-c1ccccc1C3=O)N[C@@H]1CCCC[C@H]1N2`
7.70

State, in one line, measured pKi of `NCCNC(=O)c1c2c(c3c(O)c4ccccc4c4ncnc1c34)=N[C@H]1CCCC[C@H]1N2`
6.08

State, in one line, measured pKi of `NCCNC(=O)c1c2c(c3c(O)c4ccccc4c4ncnc1c34)=N[C@@H]1CCCC[C@H]1N2`
7.35

State, in one line, measured pKi of `NCCNC(=O)c1c2c(c3c(O)c4ccccc4c4ncnc1c34)=NCCN2`
6.19

###

# assayed-system: D(2) dopamine receptor (Homo sapiens, UniProt P14416)
# Sequence (P14416 whole entry): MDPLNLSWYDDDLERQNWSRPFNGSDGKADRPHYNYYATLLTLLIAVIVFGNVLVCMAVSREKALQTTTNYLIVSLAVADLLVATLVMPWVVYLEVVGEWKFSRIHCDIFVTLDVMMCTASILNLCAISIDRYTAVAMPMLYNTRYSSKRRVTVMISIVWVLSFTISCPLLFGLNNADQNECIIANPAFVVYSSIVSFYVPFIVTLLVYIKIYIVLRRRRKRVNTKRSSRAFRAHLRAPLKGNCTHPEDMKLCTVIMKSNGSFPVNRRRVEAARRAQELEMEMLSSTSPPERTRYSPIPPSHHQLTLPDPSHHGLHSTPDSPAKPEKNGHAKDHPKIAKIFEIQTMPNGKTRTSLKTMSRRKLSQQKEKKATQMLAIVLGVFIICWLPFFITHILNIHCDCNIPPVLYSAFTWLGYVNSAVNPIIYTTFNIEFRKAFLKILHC
# protocol: Binding affinity against dopamine D2 receptor
endpoint-name: Ki (µM)
Entry rule: numbers only, all in µM.

State, in one line, measured Ki of `N[C@H]1CCCC[C@@H]1NC(=O)c1c2c(c3c4c(ncnc14)-c1ccccc1C3=O)N[C@@H]1CCCC[C@H]1N2`
3.2

Reference source: ChEMBL document CHEMBL1132065
